All values here come from ChEMBL document CHEMBL1201862.

system: PC-3; experiment: NCI tumour cell line growth inhibition, 48 h
The source made the active and inactive calls. No stated cut-off is given here; in the data, active = GI50 up to about 1.1 µM and inactive = higher.
MEASURED_PROPERTY: GI50

Query: I'd like to know its GI50. The compound in question is CC(c1ccccc1)n1c2ccccc2c2c(N)ncnc21 (stereo unspecified)
Response: 17.7 µM (inactive)

Query: Follow-up entry: C=C1[C@@H]2CCC3[C@]4(C)C(CC[C@@]5(C)C(=O)O[C@H](O)[C@@H]45)[C@H](O)[C@]3(C2)[C@H]1OC1OC(CO)C(O)C(O)C1O (stereo partly specified)
Response: > 50 µM (inactive)

Query: What do we get for O=c1ccn2n1CCCCC2 ?
Response: > 100 µM (inactive)

Query: O=[N+]([O-])c1ccc2nc(Nc3ccccc3)c(Nc3ccccc3)nc2c1 ?
Response: 0.847 µM (active)

Query: Now this one: CSc1nncc2[nH]cnc12
Response: > 100 µM (inactive)

Query: // repeat for O=C(O)CNC(=O)c1c2ccccc2nc2ccccc12 and report
Response: > 100 µM (inactive)

Query: Entry to check: Fc1ccc(C(OCCN2CCC3CCC(C2)N3Cc2cc3ccccc3[nH]2)c2ccc(F)cc2)cc1 (stereo unspecified)
Response: 1.7 µM (inactive)

====

test system: CAKI-1; experiment: NCI tumour cell line growth inhibition, 48 h
The source made the active and inactive calls. Rule as the data show it: active = GI50 up to about 1.1 µM and inactive = higher.
MEASURED_PROPERTY: GI50

Here is how some compounds turned out for GI50.
1. COc1c(C(=O)/C(=N/Nc2ccc(C(=O)O)cc2)C(C)=O)c(O)cc2occc12 ... > 100 µM (inactive)
2. O=C(Nc1nnn[nH]1)c1nc(O)cc(-c2ccccc2)n1 ... > 100 µM (inactive)
3. O=C1NCN(c2ccccc2)C12CCN(CCCSc1ccc(F)cc1)CC2 ... > 51.5 µM (inactive)
4. CC1=C(c2cc(C(=O)Nc3cc(C)ccc3C)nc(N)n2)Sc2ccccc2N1 ... > 100 µM (inactive)
5. Clc1ccc(Cl)c(/N=N\c2cc3c4c(c2)CCN4CCC3)c1 ... > 10 µM (inactive)
6. CC(=N/N=C/c1ccccn1)/C(C)=N/N=C(C)/C(C)=N/N=C(C)/C(C)=N/N=C(C)/C(C)=N\N=C\c1ccccn1 ... > 100 µM (inactive)
7. N=C(N)NCCCC(=O)O ... > 100 µM (inactive)
8. c1ccc(-c2cn3c(nc4ccccc43)c(-c3ccccc3)n2)cc1 ... > 48.9 µM (inactive)
9. Cc1cc(S(=O)(=O)NC2=NCCCN2)c(S)cc1Cl ... 16.8 µM (inactive)

Query: For the compound C=C1CC[C@@]2(C)[C@@H]([C@@H]1C)[C@H]1CC[C@@H]3[C@@]4(C)CC[C@H](O)C(C)(C)[C@@H]4CC[C@@]3(C)[C@]1(C)C[C@@H]2O , what GI50 is on record?
Response: 2.42 µM (inactive)

====

Measured GI50 by item
tested on: SK-MEL-2; assay: NCI tumour cell line growth inhibition, 48 h
Calls of active or inactive are those of the source. Cut-off read from the data, not from the text of the source: active = GI50 up to about 1.1 µM and inactive = higher.

Query: Given the molecule c1ccc(COC2(OCc3ccccc3)CC3OC2C2NN=NC32)cc1 (centres undefined) , what is its reported GI50?
Response: > 10 µM (inactive)

Query: Queued: N#Cc1c(-c2ccc(Cl)cc2)c(C#N)c(=O)n(NS(=O)(=O)c2ccccc2)c1S
Response: 47.3 µM (inactive)

Query: Then what about the molecule NN/C(Cc1ccccc1)=N\NO ?
Response: > 100 µM (inactive)

Query: Entry Clc1cc(N/N=C(/c2ccccc2)c2ncccn2)ncn1 please
Response: 32.7 µM (inactive)

Query: Could you do the same for C[C@H](CCC(=O)O[C@@H]1CC[C@@]2(C)C(CC[C@H]3[C@@H]4CC[C@H]([C@H](C)CCc5nc6ccccc6[nH]5)[C@@]4(C)CC[C@@H]32)C1)[C@H]1CC[C@H]2[C@@H]3CCC4C[C@H](O)CC[C@]4(C)[C@H]3CC[C@]12C (some centres undefined) , please?
Response: > 100 µM (inactive)

Query: And the next one, CCCCP1(=O)C=CC(Cl)=C(C)C1 (centres undefined) ?
Response: > 100 µM (inactive)

====

system: SK-OV-3; experiment: NCI tumour cell line growth inhibition, 48 h
Calls of active or inactive are those of the source. Cut-off read from the data, not from the text of the source: active = GI50 up to about 1.1 µM and inactive = higher.
MEASURED_PROPERTY: GI50

1) Cc1cc2c(cc1N)C(C)C1(CCC(=O)N2Cc2ccccc2)OCCO1 (stereo unspecified) ... > 100 µM (inactive)
2) C[n+]1c(Cl)cn2c3nc4ccccc4nc3c([O-])c(C#N)c21 ... > 100 µM (inactive)
3) COc1cc(C(=O)N(C(=O)N2CCCCC2)c2ccccc2)cc(OC)c1OC ... > 100 µM (inactive)
4) COc1ccc(C(=O)c2sc(Nc3ccccc3)nc2N)cc1 ... 26.9 µM (inactive)

Query: Looking for the measured GI50 of C=CCOC1=C(OCC=C)C(C2COC(C)(C)O2)OC1=O (stereo unspecified) , can you help?
Response: > 100 µM (inactive)

Query: Now the same for OC1(c2ccc3ccccc3c2)c2c(c3ccccc3c3ccccc23)C2=NCCN21 (stereo unspecified)
Response: 6.68 µM (inactive)

Query: Likewise for CC1(C)CC(=O)C(CC2C(=O)c3ccccc3C2=O)C(=O)C1 ?
Response: > 100 µM (inactive)

====

Below, each of the compounds is paired with its reported GI50 value.
system: SW-620; assay: NCI tumour cell line growth inhibition, 48 h
The source made the active and inactive calls. No stated cut-off is given here; in the data, active = GI50 up to about 1.1 µM and inactive = higher.

Illustrative cases are given below, each with its answer.
1. C=CCN(N=O)C(=O)N(CCC)CCCCC(NC(C)=O)C(=O)NCc1ccccc1 (stereo unspecified) ... > 100 µM (inactive)
2. N#CCCN(CCC#N)c1ccc(/C=C2\N=C(c3ccccc3)N(c3ccc(Cl)cc3)C2=O)cc1 ... > 100 µM (inactive)
3. CC(C)(C)C1=NC(=S)SC2=NC(=O)C3(NN21)c1ccccc1-c1ccccc13 ... > 10 µM (inactive)
4. C=CCC(C)(C(=O)NCCC)C(=O)c1ccccc1O (stereo unspecified) ... > 100 µM (inactive)
5. NC1CC(N)c2c(Br)sc(Br)c21 (stereo unspecified) ... 62.2 µM (inactive)

Query: Could you tell me which GI50 is on file for Cc1ccc([N+](=O)[O-])cc1NC(=O)/C(=N/NC(=S)NN)C1SC(=S)NC1=O (stereo unspecified) ?
Response: > 100 µM (inactive)

Query: Follow-up item: Nc1ncnc2c1N=C(c1ccccc1)CC(c1ccccc1)N2 (stereo unspecified)
Response: > 100 µM (inactive)

Query: Can you handle N#Cc1c(-c2ccc(Cl)cc2)c(C#N)c(=O)n(NS(=O)(=O)c2ccccc2)c1S next?
Response: 26.2 µM (inactive)

Query: Continue with Cc1ccc2c(c1)OC1Nc3ccccc3C1=C2O (stereo unspecified)
Response: 29.2 µM (inactive)

Query: // next record COC(=O)C1CC=C(SC(=O)c2ccccc2)N1C(=O)c1ccccc1 (stereo unspecified)
Response: > 100 µM (inactive)

Query: And the next one, O=C1NCN(c2ccccc2)C12CCN(CCCSc1ccc(F)cc1)CC2 ?
Response: > 49.1 µM (inactive)

====

tested on: A549; assay: NCI tumour cell line growth inhibition, 48 h
The source made the active and inactive calls. Cut-off read from the data, not from the text of the source: active = GI50 up to about 1.1 µM and inactive = higher.
MEASURED_PROPERTY: GI50

Previously resolved entries follow.
1. CC(=O)Oc1ccc2c(C)cc(=O)oc2c1OC(C)=O ... 38.4 µM (inactive)
2. C=C1C(=O)O[C@@H]2C[C@@H](C)[C@@H]3C=CC(=O)[C@@]3(C)[C@@H](O)[C@H]12 [HELENALIN] ... 2.9 µM (inactive)

Query: Which GI50 reading was recorded for the compound NNC(=O)c1nnn(CCc2ccccc2)c1C(=O)NN ?
Response: > 100 µM (inactive)

Query: Same question, CN1C(=O)C(CCO)(C(C)(C)C)c2ccccc21 (stereo not given) this time
Response: > 100 µM (inactive)

Query: Can you check O=c1ccn2n1CCCCC2 next?
Response: > 100 µM (inactive)

Query: Can you check O=c1/c(=C/c2cccc3ccccc23)sc2nc3ccccc3n12 next?
Response: > 100 µM (inactive)

Query: What do we get for C=CS(=O)(=O)c1c2cc(OC)ccc2nc2ccc(OC)cc12 ?
Response: 17.1 µM (inactive)

Query: Now the compound Cc1cc(N(CCC#N)S(=O)(=O)c2ccccc2)ccc1/C=C1N=C(/C=C/c2ccccc2)OC\1=O
Response: > 100 µM (inactive)

Query: Repeat for the following compound: CN1c2ccccc2C(=O)NC12CCN(CC1COc3ccccc3O1)CC2 (stereo not given)
Response: 50.6 µM (inactive)

Query: Quick one: O=[N+]([O-])c1cc(-c2nc(-c3ccccc3)c(-c3ccccc3)[nH]2)c(O)c([N+](=O)[O-])c1
Response: 34.4 µM (inactive)
